Reported Kd values follow for various binders
system.name: T1, Human 4-1BB extracellular domain recombinant protein (his-tag) (human, UniProt Q07011 24-186)
T1 construct: extracellular domain; also called Human4-1BB, his-tag; human 4-1BB extracellular region recombinant protein; not shown: his-tag
measurement.description: SPR (Biacore 8K), VHH-hFc captured on Protein A chip, human 4-1BB-his as analyte, 25°C, 1:1 fit
Reply numerically in nM, unit not repeated.

[[record]]
binder = "137-7 VHH-hFc recombinant antibody (Fc fusion, VHH fragment inserted into vector pFclG with human IgG1 Fc tag, expressed in HEK293F; also called CD137-7; not shown: human IgG1 Fc tag of the eukaryotic expression vector pFclG) QVQLVESGGGLVQPGGSLRLSCAASGFTLDSYAIAWFRQAPGKEREGVSCITSSGGSTNYADSVKGRFTISRDGAKNTVYLQLNSLKPEDTAIYYCAAFHRATCVILGEYDYWGQGTQVTVSS"
assay_result = 38

[[record]]
binder = "137-16 VHH-hFc recombinant antibody (Fc fusion, VHH fragment inserted into vector pFclG with human IgG1 Fc tag, expressed in HEK293F; Preparation had non-specific bands, purity >70%; also called CD137-16; not shown: human IgG1 Fc tag of the eukaryotic expression vector pFclG) EVQLVESGGGLVQAGASLTLSCVISGRTFSSYAMGWYRQAPGKERAFVGTITWNNDIIYSDSVKGRFTISTDDGKNTMYLQMNNLKPEDTAVYYCAAYSVPYGDFCTLNYDLMDYWGKGTLVTVSS"
assay_result = 33.3

[[record]]
binder = "137-1 VHH-hFc recombinant antibody (Fc fusion, also called CD137-1; not shown: human IgG1 Fc tag of the eukaryotic expression vector pFclG) QVQLVESGGGLVQPGGSLRLSCVASGFVFSTVTMGWGRQVPGKEFEWVSGVSSEGITDYADSVKGRFTISRDNAKNTVYLEMNSLKSEDTAEYYCLIGGRWSFGTWGQGTQVTVSS"
assay_result = 3.91


Next up:
Query string: Given 137-18 VHH-hFc recombinant antibody (Fc fusion, VHH fragment inserted into vector pFclG with human IgG1 Fc tag, expressed in HEK293F; also called CD137-18; not shown: human IgG1 Fc tag of the eukaryotic expression vector pFclG) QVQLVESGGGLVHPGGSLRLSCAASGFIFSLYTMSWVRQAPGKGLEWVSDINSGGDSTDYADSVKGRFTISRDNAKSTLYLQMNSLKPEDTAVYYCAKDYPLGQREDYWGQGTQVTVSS , state its recorded Kd.
Result string: 3.36
